This collection of values is drawn from patent US20060058231A1.

Biological target: T1, BMPRIb receptor-Fc fusion (UniProt O00238 14-126)
T1 construct: BMP receptor-Fc fusion used at 5 ug/mL; also called ALK-6
T1 sequence (looked up): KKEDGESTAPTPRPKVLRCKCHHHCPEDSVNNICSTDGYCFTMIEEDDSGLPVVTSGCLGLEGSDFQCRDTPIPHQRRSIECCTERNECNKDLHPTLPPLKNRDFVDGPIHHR
Assay: ELISA-like plate assay, captured BMP-7 from conditioned media, receptor-Fc detection
PROPERTY: BMPRIb binding (relative to wild type = 1.0)

Query: Tell me BMPRIb binding (relative to wild type = 1.0) reported for BMP-7 variant F73D (ligand, In conditioned media; numbering on mature BMP-7) STGGKQRSQNRSKTPKNQEALRMASVAENSSSDQRQACKKHELYVSFRDLGWQDWIIAPEGYAAYYCEGECADPLNSYMNATNHAIVQTLVHFINPETVPKPCCAPTQLNAISVLYFDDSSNVILKKYRNMVVRACGCH
Response: 0.64 relative to wild type

Query: Tell me BMPRIb binding (relative to wild type = 1.0) reported for BMP-7 variant I86E (ligand, In conditioned media; numbering on mature BMP-7) STGGKQRSQNRSKTPKNQEALRMASVAENSSSDQRQACKKHELYVSFRDLGWQDWIIAPEGYAAYYCEGECAFPLNSYMNATNHAEVQTLVHFINPETVPKPCCAPTQLNAISVLYFDDSSNVILKKYRNMVVRACGCH
Response: 0.69 relative to wild type

Query: Tell me BMPRIb binding (relative to wild type = 1.0) reported for BMP-7 variant F93H (ligand, In conditioned media; numbering on mature BMP-7) STGGKQRSQNRSKTPKNQEALRMASVAENSSSDQRQACKKHELYVSFRDLGWQDWIIAPEGYAAYYCEGECAFPLNSYMNATNHAIVQTLVHHINPETVPKPCCAPTQLNAISVLYFDDSSNVILKKYRNMVVRACGCH
Response: 1.04 relative to wild type

Query: Tell me BMPRIb binding (relative to wild type = 1.0) reported for BMP-7 variant S77T (ligand, In conditioned media; numbering on mature BMP-7) STGGKQRSQNRSKTPKNQEALRMASVAENSSSDQRQACKKHELYVSFRDLGWQDWIIAPEGYAAYYCEGECAFPLNTYMNATNHAIVQTLVHFINPETVPKPCCAPTQLNAISVLYFDDSSNVILKKYRNMVVRACGCH
Response: 0.79 relative to wild type

Query: Tell me BMPRIb binding (relative to wild type = 1.0) reported for BMP-7 variant F73N (ligand, In conditioned media; numbering on mature BMP-7) STGGKQRSQNRSKTPKNQEALRMASVAENSSSDQRQACKKHELYVSFRDLGWQDWIIAPEGYAAYYCEGECANPLNSYMNATNHAIVQTLVHFINPETVPKPCCAPTQLNAISVLYFDDSSNVILKKYRNMVVRACGCH
Response: 0.95 relative to wild type

Query: Tell me BMPRIb binding (relative to wild type = 1.0) reported for BMP-7 variant R129K (ligand, In conditioned media; numbering on mature BMP-7) STGGKQRSQNRSKTPKNQEALRMASVAENSSSDQRQACKKHELYVSFRDLGWQDWIIAPEGYAAYYCEGECAFPLNSYMNATNHAIVQTLVHFINPETVPKPCCAPTQLNAISVLYFDDSSNVILKKYKNMVVRACGCH
Response: 0.77 relative to wild type

Query: Tell me BMPRIb binding (relative to wild type = 1.0) reported for BMP-7 variant K39N (ligand, In conditioned media; numbering on mature BMP-7) STGGKQRSQNRSKTPKNQEALRMASVAENSSSDQRQACNKHELYVSFRDLGWQDWIIAPEGYAAYYCEGECAFPLNSYMNATNHAIVQTLVHFINPETVPKPCCAPTQLNAISVLYFDDSSNVILKKYRNMVVRACGCH
Response: 1.63 relative to wild type
